Tested on: A498 renal
Assay: NCI-60 one-dose screen, 48 h
Condition description: 10 µM
Compounds without any hit were thinned out: in the full panel of roughly 83,000, 20% have a hit. Activity calls are given as the source filed them. How the source made its calls: active means growth percent below 10; inactive means the rest.
Mark one answer only. Choices: active, inactive

Record smiles: CC[C@H](C)[C@H](NC(=O)[C@H]1CCCCN1C)C(=O)N(C)[C@H](C[C@@H](OC(C)=O)c1nc(C(=O)NC23CC(C(=O)OC)(C2)C3)cs1)C(C)C
Cat: active
--
Record smiles: CC(=O)/C=C/c1ccc2c(c1)OCO2
Cat: inactive
--
Record smiles: CC[C@H](C)[C@H](NC(=O)[C@H]1CCCCN1C)C(=O)N(C)[C@H](CC(=O)c1nc(C(=O)N[C@@H](Cc2ccccc2)C[C@H](C)C(=O)O)cs1)C(C)C
Cat: inactive

Below: the item to evaluate.
Query :: Status in this test for `COc1cc2ncnc(Nc3ccc(F)c(Cl)c3)c2cc1OCC(=O)N1CCN(C)CC1` ?
Result :: inactive

###

Test system: MOLT-4 leukemia
Assay: NCI-60 one-dose screen, 48 h (100 = growth as untreated, 0 = no growth, -100 = all killed)
Condition description: 10 µM unless noted
This is part of a sample that, as a whole, favours compounds with a hit. Of some 83,000 tested, about 20% had one in any assay. Calls of active or inactive are those of the source. The calls were made as follows: active = growth percent below 10; inactive = the rest.
Quantity kind: growth

Compound: Fc1ccc(N2COOC3(OOC2)C2CC4CC(C2)CC3C4)cc1
growth: 92.8% (inactive)

Compound: CC1CCCC(C[N+](C)(C)C)C1=O (stereo not given)
growth: 75.7% (inactive)

Consider the following items and state reported growth for each.
1. CCn1nccc1NC(=O)C(=O)c1cn(Cc2ccc(F)cc2)c2cccc(OC)c12
2. [Cl][Hg][n]1c(-c2ccco2)nc2ccccc21

Result ::
1. 66.4% (inactive)
2. 88.3% (inactive)

Consider the following items and state reported growth for each.
1. [Cl][Hg][c]1cc(Br)cc(Br)c1
2. O=C1OCC2=C1C(c1ccccc1)c1cc3c(cc1N2)OCO3 (stereo not given)
3. Brc1ccc2c(c1)c(-c1nc(-c3c[nH]c4ncccc34)cs1)cn2CCN1CCOCC1
4. COC(=O)[C@@H](C)C[C@H](Cc1ccc(F)cc1)NC(=O)c1csc([C@@H](C[C@H](C(C)C)N(C)C(=O)[C@@H](NC(=O)[C@H]2CCCCN2C)C2CC2)OC(C)=O)n1
5. CC(C)OC(=O)[C@H](C)NP(=O)(Oc1ccccc1)C1CCCN(O)C1=O (stereo not given in full)
6. Cn1cc(-c2csc(-c3cn(CCCCN4CCCCC4)c4ccccc34)n2)c2cccnc21
7. CC(C)(NC(=O)O[C@@H]1CN2CCC1CC2)c1csc(-c2ccc(F)cc2)n1

Result ::
0.93% (active)
21.2% (inactive)
41.3% (inactive)
17.8% (inactive)
93.7% (inactive)
-55% (active)
91.3% (inactive)

Consider the following items and state reported growth for each.
1. CCOc1ccccc1C(=O)OCC(Cl)(Cl)Cl
2. CCN1C(=O)C(=C/C=C/c2ccccc2)C(=O)N(CC)C1=O
3. COc1ccc(-n2c(C)nc3cc(OC)c(OC)cc3c2=O)cc1OC
4. CCOC(=O)[C@@H](C)C[C@H](Cc1ccccc1)NC(=O)c1csc([C@@H](C[C@H](C(C)C)N(C)C(=O)[C@H](CCC(C)C)NC(=O)[C@H]2CCCCN2C)OC(C)=O)n1
5. CCCCCCCCCCCCNC(c1ccccc1)C(O)c1ccccc1 (stereo not given)
6. Cn1cc(-c2csc(-c3cn(CCN4CCOCC4)c4ccc(F)cc34)n2)c2cccnc21
7. CCOP(=O)(Cc1ccc(C#N)cc1)OCC

Result ::
["105% (inactive)", "6.92% (active)", "97.2% (inactive)", "10.3% (inactive)", "61.7% (inactive)", "4.03% (active)", "94.8% (inactive)"]

Consider the following items and state reported growth for each.
1. COc1ccc(/C=C\c2cc(OC)c(OC)c(OC)c2)c(NS(=O)(=O)c2ccc(F)cc2)c1O
2. COc1ccc(C2=CC(c3ccc(OC)c(OC)c3)c3c(c4ccccc4oc3=O)O2)cc1OC (stereo not given)
3. CN[C@@]1(c2ccccc2Cl)CCCC[C@@H]1NCC1CCCO1 (stereo not given in full)
4. CN1CCC(c2c[nH]c3ccccc23)C1 (stereo not given)
5. C/C(CC(C)(C)N1CC1)=N\NC(=O)Nc1cccc2ccccc12
6. CNC(=O)Oc1ccc2c(c1)OCO2
7. Nc1nc([Se])c2ncn(C3OC(CO)C(O)C3O)c2n1 (stereo not given)
8. CCCCCCCCCCCCCCCCCCOc1ccccc1COP(=O)(O)OOCC[N+](C)(C)C

Result ::
1: 19.6% (inactive); 2: 11.9% (inactive); 3: 111% (inactive); 4: 105% (inactive); 5: 12.2% (inactive); 6: 94.3% (inactive); 7: 7.08% (active); 8: -36.1% (active)

###

System: NCI/ADR-RES ovarian
Assay: NCI-60 one-dose screen, 48 h (100 = growth as untreated, 0 = no growth, -100 = all killed)
Condition description: 10 µM unless noted
The panel holds about 83,000 compounds, 20% with a hit somewhere; the sample as a whole holds those more often.
Quantity kind: growth (%)
Numbers only, in %.

Molecule: N#C[Se]CCN1C(=O)c2ccccc2C1=O
Unit spec: %
growth: 9.97

Consider the following items and state reported growth for each.
1. C=CC[PH+](c1ccccc1)c1ccccc1.C=CC[PH+](c1ccccc1)c1ccccc1.[Cl][Pt][Cl]
2. COC1CC2c3ccccc3C1C(C)=[N+]2C (stereo not given)

Result ::
1. 97
2. 78.7

Consider the following items and state reported growth for each.
1. O=C([O][Hg][c]1ccccc1)c1ccccc1
2. c1ccc(COc2ccc3[nH]cc(CCN(Cc4ccccc4)Cc4ccccc4)c3c2)cc1

Result ::
1. 37.9
2. 91.4

Consider the following items and state reported growth for each.
1. CC(=O)Oc1ccccc1C(=O)NCCC[Se]C#N
2. CCOC(=O)[C@@H](C)C[C@H](Cc1ccccc1)NC(=O)c1csc([C@@H](C[C@H](C(C)C)N(C)C(=O)[C@@H](NC(=O)[C@H]2CCCCN2C)C(C)(C)C)OC(C)=O)n1
3. Nc1nc([Se])c2ncn(C3OC(CO)C(O)C3O)c2n1 (stereo not given)
4. O=P(N1CC1)(N1CC1)N1CCc2ccccc21
5. CCOC(=O)CCN(C)C1=Nc2ccc(Cl)cc2C(c2ccccc2)=[N+]([O-])C1
6. CC(=O)O[C@H](C[C@H](C(C)C)N(C)C(=O)[C@@H](NC(=O)[C@H]1CCCCN1C)C(C)C)c1nc(C(=O)N[C@@H](Cc2ccccc2)C[C@H](C)C(=O)O)c(CCOCc2ccccc2)s1

Result ::
[14.4, 6.69, 41.5, 101, 104, 9.71]

###

Tested on: EKVX NSCLC
Assay: NCI-60 one-dose screen, 48 h (100 = growth as untreated, 0 = no growth, -100 = all killed)
Condition description: 10 µM unless noted
About 83,000 compounds went through this panel and 20% of them were active in at least one assay; those are over-represented in the sample as a whole.
Quantity kind: growth (%)
Answers are plain numbers, in %.

Molecule: C/C(=C\c1ccn(-c2ccc(N)c(F)c2)n1)[C@@H]1C[C@@H]2O[C@]2(C)CCC[C@H](C)[C@H](O)[C@@H](C)C(=O)C(C)(C)[C@@H](O)CC(=O)O1
growth, %: 42.2
//
Molecule: ClCCN(CCCl)c1ccc(/C=N\N=C\c2ccc(N(CCCl)CCCl)cc2)cc1
growth, %: 47.1
//
Molecule: CNC(=O)Oc1ccc(C(C)(C)C)cc1OC(=O)NC
growth, %: 82.1
//
Molecule: CC[C@H](C)[C@H](NC(=O)[C@H]1CCCCN1C)C(=O)N(C)[C@H](C[C@@H](O)c1nc(C(=O)N[C@@H](Cc2ccccc2)C[C@H](C)C(=O)O)cs1)C(C)C
growth, %: 91.5
//
Molecule: CCC(=O)Nc1ccc(Cl)c(Cl)c1
growth, %: 98.4
//
Molecule: CCN(CC)CCOC(=O)C(OC(C)C)(c1ccccc1)c1ccccc1
growth, %: 93.5
//
Molecule: c1cnc2[nH]cc(-c3csc(-c4cn(CCCCN5CCCCC5)c5ccccc45)n3)c2c1
growth, %: 83.1

Would you kindly look at the next entry?
Query :: Consider the molecule COc1cc(C=C2c3ccccc3C(=O)c3ccccc32)ccc1OCCCCOc1cc2c(cc1OC)C(=O)N1CCCC1C=N2 (stereo not drawn) . State its measured growth.
Result :: -49.8

###

Test system: COLO 205 colon
Assay: NCI-60 one-dose screen, 48 h (100 = growth as untreated, 0 = no growth, -100 = all killed)
Condition description: 10 µM unless noted
Description: Cells are grown in 96 well plates and exposed to the test compound for 48 hours. Compounds are tested at a single concentration, which is 10^-5 M for most compounds. The reported endpoint is percent growth (GI% or GIPRCNT), where numbers from 0 - 100% represent growth inhibition, and numbers from -100% - 0 represent cell death. For example, a value of 40 represents 60% growth inhibition. A value of 0 means no net growth occurred over the course of the experiment. […]
The panel holds about 83,000 compounds, 20% with a hit somewhere; the sample as a whole holds those more often.
Quantity kind: growth (%)
One number for each entry, in %.

Molecule: O=C(Nc1ccncc1F)c1cn(CC2CC2)c2ccccc12
growth / %: 112

Molecule: CCn1cnc2c(Nc3cccc(Cl)c3)nc(N[C@@H]3CCCC[C@@H]3N)nc21
growth / %: -67.6

Molecule: Fc1ccc(N2COOC3(OOC2)C2CC4CC(C2)CC3C4)cc1
growth / %: 116

Molecule: CCCCCCCCCCCCNC(c1ccccc1)C(O)c1ccccc1 (configuration not stated)
growth / %: -30.7

Molecule: COc1ccc(/C=C\c2cc(OC)c(OC)c(OC)c2)c(NS(=O)(=O)c2ccc(F)cc2)c1O
growth / %: 0.893

Molecule: COc1ccc(S(=O)(=O)Nc2c(/C=C\c3cc(OC)c(OC)c(OC)c3)ccc(OC)c2O)cc1OC
growth / %: -39.3

Consider the following items and state reported growth for each.
1. O=C1C(=Cc2cn(Cc3ccccc3)c3ccccc23)C(=O)N(Cc2ccccc2)C(=O)N1Cc1ccccc1
2. Clc1cccc(NCOOC2(OOCNc3cccc(Cl)c3)CCCCCC2)c1
3. COC(=O)[C@@H](C)C[C@H](Cc1ccccc1)NC(=O)c1nc([C@@H](C[C@H](C(C)C)N(C)C(=O)[C@@H](NC(=O)[C@H]2CCCCN2C)C(C)C)OC(C)=O)sc1C(C)C
4. COc1ccc(Nc2ccc([N+](=O)[O-])cc2[N+](=O)[O-])cc1CN(CCCl)CCCl

Result ::
1: 26.4; 2: 113; 3: -61.5; 4: 38

Consider the following items and state reported growth for each.
1. Nc1ncnc2n[nH]nc12
2. COC(=O)[C@H](Cc1ccccc1)NNC(=O)c1csc([C@@H](C[C@H](C(C)C)N(C)C(=O)[C@@H](NC(=O)[C@H]2CCCCN2C)C2CC2)OC(C)=O)n1
3. c1cnc2[nH]cc(-c3csc(-c4cn(CCCCN5CCOCC5)c5ccccc45)n3)c2c1
4. CC[C@H](C)[C@H](NC(=O)NC(C)(C)C)C(=O)N(C)[C@H](C[C@@H](OC(C)=O)c1nc(C(=O)N[C@@H](Cc2ccccc2)C[C@H](C)C(=O)OC)cs1)C(C)C

Result ::
[70.5, -60.3, -77.6, -53.8]

Consider the following items and state reported growth for each.
1. CN1CCC(O)(c2ccc(F)cc2)C(C(=O)c2ccc(F)cc2)C1 (configuration not stated)
2. COc1ccc(/C=C\c2cc(OC)c(OC)c(OC)c2)cc1NC(=O)/C=C/c1ccc(OC)c(OC)c1

Result ::
1: 115; 2: -4.78

Query :: Consider the molecule `CC[C@H](C)[C@@H]1OC(=O)C(C)(C)[C@H](O)[C@H](Cc2ccccc2)OC(=O)[C@H](C(C)C)OC(=O)[C@@H](NC(=O)c2cccc(NC=O)c2O)[C@@H](C)OC1=O` . State its measured growth.
Result :: 43.6
